FYI, the data here is from ChEMBL document CHEMBL3885881.

Reported ALBUMIN values for a set of compounds
# Species: Rattus norvegicus
# test: DrugMatrix - Regimen: Daily Repeat
# Format: toxicity, organism-based, Sprague-Dawley
# Design: regimen Daily Repeat, gender Male, age 6-8 weeks
# study-conditions: in vivo, po, 0 mg/kg, 72 h, tissue Plasma, route oral GAVAGE, dose level Control, time 3 day, vehicle .5 % CMC
State the result as a value with its unit after it.

// solved cases for ALBUMIN follow
                                   compound  readout  endpoint_value
0  C#C[C@]1(O)CC[C@H]2[C@@H]3CCc4cc(OC)ccc4[C@H]3CC[C@@]21C [MESTRANOL]  ALBUMIN       4.33 G/DL
1  Clc1ccc2c(c1)C(N1CCNCC1)=Nc1ccccc1O2 [AMOXAPINE]  ALBUMIN       4.22 G/DL
2  CC[C@@H](CO)NCCN[C@@H](CC)CO [ETHAMBUTOL]  ALBUMIN       4.07 G/DL
3  OC(CCN1CCCCC1)(c1ccccc1)C1CCCCC1 (stereo not given) [TRIHEXYPHENIDYL]  ALBUMIN       4.17 G/DL

Could you now consider this next compound?
Task: Note ALBUMIN for the compound shown: C[C@](O)(CS(=O)(=O)c1ccc(F)cc1)C(=O)Nc1ccc(C#N)c(C(F)(F)F)c1 [(R)-BICALUTAMIDE]
Result: 4.15 G/DL
